Taken from the nanobody polyreactivity screen of Harvey et al. (2022).

- Assay: yeast display, Sf9 membrane polyspecificity reagent, FACS + sequencing; frameworks hold sequencing errors

>  <Input sequence>
QVQLVESGGGLVQAGGSLRLSCAASGRIFVTNDMGWYRQAPGKERELVAAISLSSGSTYYADSVKGRFTISRDNAKNTVYLQMNSLKPEDTAVYYCAADIFPFGYFLFRHGYWGQGTQVTVSS

>  <polyreactivity (PSR sort gate)>
low polyreactivity

$$$$
>  <Input sequence>
QVQLVESGGGLVQAGGSLRLSCAASGRTLVWYTMGWYRQAPGKEREFVAVITTGSGSTYYADSVKGRFTISRDNAKNTVYLQMNSLKPEDTAVYYCNAGYGGYSYHYPPYEYWGQGTQVTVSS

>  <polyreactivity (PSR sort gate)>
low polyreactivity

$$$$
>  <Input sequence>
QVQLVESGGGLVQAGGSLRLSCAASGSIFRRNAMGWYRQAPGKERELVAAITWRGDRTYYADSVKGRFTISRDNAKNTVYLQMNSLKPEDTAVYYCNKLGRIQYDYWGQGTQVTVSS

>  <polyreactivity (PSR sort gate)>
high polyreactivity

$$$$
>  <Input sequence>
QVQLEESGGGLVQAGGSLRLSCAASGSIFFSYAMGWYRQAPGKERELVAAISSGGSTYYADSVKGRFTISRDNAKNTVYLQMNSLKPEDTAVYYCAARGYRLVPVDFYYWGQGTQVTVSS

>  <polyreactivity (PSR sort gate)>
low polyreactivity

$$$$
>  <Input sequence>
QVQLVESGGGLVQAGGRLRLSCAASGRIFQYNAMGWYRQAPGKERELVAAITSSGGSTYYADSVKGRFTISRDNAKNTVYLQMNSLKPEDTAVYYCAAKRPQYYVQFGYWGHGTQVTVSS

>  <polyreactivity (PSR sort gate)>
high polyreactivity

$$$$
>  <Input sequence>
QVQLVESGGGLVQAGGSLRLSCAASGSTFYAYAMGWYRQAPGKERELVAAIRRSTGRTYYADSVKGRFTISRDNAKNTVYLQMNSLKPEDTAVYYCAASYPVDYYDMYYWGQGTQVTVSS

>  <polyreactivity (PSR sort gate)>
high polyreactivity

$$$$
>  <Input sequence>
QVQLVESGGGLVQAGGSLRLSCAASGSIAHYAMGWYRQDPGKERELVAAINWSGGSTNYADSVKGRFTISRDNAKNTVYLQMNSMKPEDTAVYYCSAQKRGPGYPYYYWGQGTQVTVSS

>  <polyreactivity (PSR sort gate)>
high polyreactivity

$$$$
>  <Input sequence>
QVQLVESGGGLVQAGGSLRLSCAASGRIFRGYAMGWSRQAPGKERELVAVISYSGTRTYYADSVKGRFTISRDNAKNTVYLQMNSLKPEDTAVYYCNARANGFKDGYWGQGTQVTVSS

>  <polyreactivity (PSR sort gate)>
high polyreactivity

$$$$
>  <Input sequence>
QVQLVESGGGLVQAGCSLRISCAASGRIIKSYASGWYRQAPGKERELVAAITWSSGSTYYADSVKGRFTISRDNAKNTVYFQMKRLKPEDTEVYYCAADPIRYRSRHKYGFWGHGTQVTVSS

>  <polyreactivity (PSR sort gate)>
low polyreactivity

$$$$
>  <Input sequence>
QDQLVESGGGLVQAGGSLRLSCPASGFTFERNTMGWYRQAPGKERELVAVITRRGGNTNYADSVKGRFTISRDNAKNTVYLQMNSLKPEDTAVYYCAAYYSHYGTRYDYWGQGTQVTVSS

>  <polyreactivity (PSR sort gate)>
high polyreactivity

$$$$
>  <Input sequence>
QVQLVESGGGLVQAGGSLRLSCAASGSTFSRYTMGWSRQAPGKERELVAAISYRGGSTYYADSVKGRFTISRDNAKNTVYLQMNSLKPEDTAVYYCAADAEGSASKYDYWGQGTQVTVSS

>  <polyreactivity (PSR sort gate)>
low polyreactivity

$$$$
